Target: 11-beta-hydroxysteroid dehydrogenase type 2 (Homo sapiens, UniProt P80365)
Sequence (P80365 whole entry): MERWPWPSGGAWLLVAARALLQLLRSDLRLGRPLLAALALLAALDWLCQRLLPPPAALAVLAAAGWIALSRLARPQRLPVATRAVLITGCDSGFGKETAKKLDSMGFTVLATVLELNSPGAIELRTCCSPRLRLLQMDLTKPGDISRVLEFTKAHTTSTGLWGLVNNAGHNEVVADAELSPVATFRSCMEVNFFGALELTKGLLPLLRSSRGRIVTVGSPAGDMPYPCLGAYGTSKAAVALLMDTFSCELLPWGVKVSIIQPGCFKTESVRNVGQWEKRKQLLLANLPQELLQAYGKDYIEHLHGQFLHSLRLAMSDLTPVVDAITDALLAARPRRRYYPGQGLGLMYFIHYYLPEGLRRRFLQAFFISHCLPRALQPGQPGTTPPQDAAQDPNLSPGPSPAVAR
MEASURED_QUANTITY: IC50

Consider the worked cases shown below.
molecule=CC(C)(C(=O)N[C@H]1C2CCCC1C[C@H](C(N)=O)C2)N1CCN(c2ccc(C(F)(F)F)cn2)CC1 result="> 30 µM"
molecule="CC(C)(C(=O)NC1CC[C@@H]2[C@H](CC1)[C@H]2C(N)=O)N1CCN(c2ccc(C(F)(F)F)cn2)CC1 (some centres not stated)" result="> 30 µM"
molecule="CC(C)(C(=O)N[C@H]1C2CCCC1C[C@@H](C(N)=O)C2)N1CCN(c2ccc(C(F)(F)F)cn2)CC1 (stereo in doubt; 44)" result="> 30 µM"
molecule=CC(C)(Oc1ccc(Cl)cc1)C(=O)NC12CCC(C(N)=O)(CC1)CC2 result="100 µM"
molecule="CC(C)(C(=O)N[C@H]1C2CCCC1C[C@@H](C(N)=O)C2)N1CCN(c2ccc(C(F)(F)F)cn2)CC1 (stereo in doubt; 47)" result="> 100 µM"
molecule="CC(C)(Oc1ccc(Cl)cc1)C(=O)NC1CCCC(C#N)CCC1 (configuration not stated)" result="> 100 µM"

// moving on: another record for IC50
// query IC50 value for entry CC(C)(Oc1ccc(Cl)cc1)C(=O)N[C@H]1C2COCC1C[C@@H](C(N)=O)C2 > 100 µM

###

Readings of pIC50 for the listed molecules
Target: 11-beta-hydroxysteroid dehydrogenase type 2 (Mus musculus)
Sequence (P51661 whole entry): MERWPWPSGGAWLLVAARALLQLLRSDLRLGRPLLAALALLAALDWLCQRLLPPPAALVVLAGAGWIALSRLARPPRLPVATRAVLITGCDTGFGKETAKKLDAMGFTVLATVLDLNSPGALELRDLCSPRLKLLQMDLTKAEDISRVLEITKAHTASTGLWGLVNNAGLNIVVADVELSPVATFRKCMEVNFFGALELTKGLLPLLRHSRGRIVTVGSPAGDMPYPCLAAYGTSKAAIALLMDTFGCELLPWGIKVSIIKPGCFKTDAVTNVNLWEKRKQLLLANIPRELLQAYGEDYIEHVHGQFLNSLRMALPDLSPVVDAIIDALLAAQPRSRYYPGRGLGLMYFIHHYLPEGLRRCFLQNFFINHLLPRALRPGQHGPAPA
pIC50: −log10 of the molar value.

molecule="CC(C)(Oc1ccc(Cl)cc1)C(=O)NC1C2CC3CC1CC(O)(C2)O3 (configuration not stated)" result="< 4.00"

// query pIC50 value for entry CC(C)(C(=O)N[C@H]1C2CCCC1C[C@@H](C(N)=O)C2)N1CCN(c2ccc(C(F)(F)F)cn2)CC1 (stereo in doubt; 47) 4.07

// query pIC50 value for entry CC(C)(C(=O)N[C@H]1C2CCCC1C[C@H](C(N)=O)C2)N1CCN(c2ccc(C(F)(F)F)cn2)CC1 < 4.52

// query pIC50 value for entry CC(C)(C(=O)NC1CCCC(C#N)CCC1)N1CCN(c2ccc(C(F)(F)F)cn2)CC1 (configuration not stated) < 4.00

// query pIC50 value for entry CC(C)(C(=O)N[C@H]1C2CCCC1C[C@@H](C(N)=O)C2)N1CCN(c2ccc(C(F)(F)F)cn2)CC1 (stereo in doubt; 44) < 4.52

// query pIC50 value for entry CC(C)(Oc1ccc(Cl)cc1)C(=O)NC12CCC(C(N)=O)(CC1)CC2 < 4.00

// query pIC50 value for entry CC(C)(Oc1ccc(Cl)cc1)C(=O)NC1CCCC(C#N)CCC1 (configuration not stated) < 4.00
